The entries below are paired with their reported TGI.
# Tested on: NCI-H23 lung
# Experiment: NCI tumour cell line growth inhibition, 48 h

Per the records, this compound ( CC1CN(c2ccc(Cl)cc2)CC(C)OC(=O)O1 (centres undefined) ) has TGI equal to > 100 µM

Per the records, this compound ( CC1=NN(c2cccc(Cl)c2)C2(SCC(=O)N2c2nc3ccccc3s2)/C1=C\c1cccs1 (centres undefined) ) has TGI equal to 43.5 µM

Per the records, this compound ( Nc1ccccc1S(=O)(=O)c1ccccc1 ) has TGI equal to > 100 µM

* * *

# Test system: 786-0 renal
# Experiment: NCI tumour cell line growth inhibition, 48 h
The entries below are paired with their reported TGI.

# Molecule, Experimental Target, Measured Property, Measured Result
measured = [
    ("Fc1ccc(C(OCCN2CCC3CCC(C2)N3C/C=C/c2ccco2)c2ccc(F)cc2)cc1 (centres undefined)", "786-0 renal", "TGI", "22.2 µM"),
]

Per the records, this molecule ( CC12CC3OC(=O)C1COC14OC5(C2C1=O)C(O)(CCC1C4CC(O)C2(O)CC=CC(=O)C12C)C(=O)OC35C (centres undefined) ) has TGI equal to > 100 µM

Per the records, this molecule ( O=C(O)C1OC1(c1cccc(Cl)c1)c1ccccc1Cl (centres undefined) ) has TGI equal to > 100 µM

Per the records, this molecule ( CCOC(=O)/C=C/n1c2ccccc2c(=O)c2ccccc21 ) has TGI equal to > 100 µM

* * *

# System: HOP-62 NSCLC
# Experiment: NCI tumour cell line growth inhibition, 48 h
Measured Property: TGI (µM)
Dear colleague, please return just the value in µM, with no unit written.

# Compound, Readout Unit, TGI
rows = [
    ("CN[C@H](C#Cc1c(F)ccc2c1/C(=C/c1[nH]ccc1OC)C(=O)N2)CO", "µM", 2.42),
    ("COc1cc2c(ccc3c4cc(OC)c(OC)cc4c[n+](C)c23)cc1O", "µM", 21),
    ("COc1cccc2c1ccc1nc3cccc(C(=O)N[C@H](C)CN(C)C)c3nc12", "µM", 0.787),
]

Per the records, this compound ( CN1CCN(CCOc2ccc(-c3cnc4c(-c5ccc(C(F)(F)F)cc5)cnn4c3)cc2)CC1 ) has TGI equal to 3.55

Per the records, this compound ( Nc1cccc(/C=C/C(=O)N2CCN(CCOC(c3ccccc3)c3ccccc3)CC2)c1 ) has TGI equal to 32.4

Per the records, this compound ( CCN(CC)/C(Sc1ccccc1)=C(\C(Cl)=C(Cl)Cl)[N+](=O)[O-] ) has TGI equal to 42.4

Per the records, this compound ( CC(=O)C(=Cc1ccc(C=C(C(C)=O)C(C)=O)cc1)C(C)=O ) has TGI equal to 6.38

Per the records, this compound ( O=S(=O)(Nc1ccc(Br)c(Cl)c1)c1ccc(-c2cnc(C3CC3)o2)cc1 ) has TGI equal to 19

* * *

# Test system: UACC-62 melanoma
# Experiment: NCI tumour cell line growth inhibition, 48 h; in the data active = GI50 below about 0.43 µM; inactive = the rest
Use one of these outcomes when replying: true for active, false for inactive

# Compound, Label Class
rows = [
    ("CN[C@H](C#Cc1c(F)ccc2c1/C(=C/c1[nH]ccc1OC)C(=O)N2)CO", "false"),
    ("COC1=CC(c2ccc[nH]2)=N/C1=C\\c1[nH]c(C)c(C(=O)CCCCC(=O)NC(C)(C)C)c1C", "false"),
    ("O=C1C(N2CC2)=C(N2CC2)C(=O)C(N2CC2)=C1N1CC1", "true"),
    ("COc1cccc(-c2nn(-c3ccccc3)cc2-c2ccnc(NCCCNC(=O)Nc3ccc(Cl)c(Cl)c3)c2)c1", "false"),
    ("CC1OC(n2c3ccccc3c3c4c(c5c6ccccc6[nH]c5c32)C(=O)N(CCN[C@@H]2CCC[C@H]2N)C4=O)CC(O)C1O (stereo partly drawn)", "false"),
    ("C=CCC1(O)c2ccccc2C(=O)c2c(NCCN(CC(=O)OCC)CC(=O)OCC)cccc21 (stereo not drawn)", "false"),
    ("COC(=O)[C@@]12OC[C@]34[C@H]([C@@H](O)[C@@H]1O)[C@@]1(C)[C@H](O)C(=O)C=C(C)[C@@H]1C[C@H]3OC(=O)C(OC(C)=O)[C@@H]24 (stereo partly drawn)", "true"),
    ("O=C1c2cccc(NCCN=Cc3cc([N+](=O)[O-])ccc3O)c2C(=O)c2c(NCCN=Cc3cc([N+](=O)[O-])ccc3O)cccc21", "false"),
]

Q. What was the test verdict on O=c1cc(-c2ccccc2F)[nH]c2ccc(N3CCCC3)cc12 ?
A. true

Q. What was the test verdict on CCC1CN2C(=N1)c1ccccc1-c1cc(Cl)ccc12 (stereo not drawn) ?
A. false

Q. What was the test verdict on COc1ccc(C(=O)/C=C/c2cccc([N+](=O)[O-])c2)c(OC)c1 ?
A. false

Q. What was the test verdict on CNC(=O)c1cccc2cc(Oc3ccnc4cc(OCC5(N)CC5)c(OC)cc34)ccc12 ?
A. false

Q. What was the test verdict on NC(=O)c1ccccc1Nc1ccc2nnc(-c3ccncc3)n2n1 ?
A. false

Q. What was the test verdict on c1csc(-c2cn3nc(-c4c[nH]c5ccccc45)sc3n2)c1 ?
A. false

* * *

The entries below are paired with their reported TGI.
# System: OVCAR-5 ovarian
# Experiment: NCI tumour cell line growth inhibition, 48 h

Reference set (5 entries):
# Compound, Experimental Target, TGI
measured = [
    ("COc1ccc2c(=O)cc(-c3ccncc3)oc2c1OC", "OVCAR-5 ovarian", "> 100 µM"),
    ("COc1cc2c(cc1OC)C(=O)/C(=C/c1ccc(Cl)cc1)CC2", "OVCAR-5 ovarian", "> 10 µM"),
    ("Cn1c(O)c(C=Nc2ccccc2[N+](=O)[O-])c(=O)n(C)c1=O", "OVCAR-5 ovarian", "> 100 µM"),
    ("C(=N\\NC1=NCCN1)/c1ccc(-c2cn3cc(/C=N/NC4=NCCN4)ccc3n2)cc1", "OVCAR-5 ovarian", "> 100 µM"),
    ("O=C1NC2(CCCCCC2)C2CCCCCCC12O (stereo not given)", "OVCAR-5 ovarian", "> 100 µM"),
]

Per the records, this compound ( C[C@@H](c1ccccc1)N1CN(C(=O)OCc2ccccc2)C(C)(C)CC1=O ) has TGI equal to > 100 µM

Per the records, this compound ( COc1ccc2c3c1O[C@H]1C(OC)C=CC4C(C2)N(Cc2cccs2)CCC341 (stereo not given in full) ) has TGI equal to > 100 µM

Per the records, this compound ( COc1cccc([C@H]2C/C(=N\NC(=O)C(=O)N[C@@H](C)c3ccccc3)c3ccccc3N2)c1 ) has TGI equal to > 100 µM

Per the records, this compound ( COc1cccc2c1Cc1cc(-c3ccccc3)[n+](C)n1-2 ) has TGI equal to > 100 µM

Per the records, this compound ( COc1cc2c(ccc3c4cc(OC)c(OC)cc4c[n+](C)c23)cc1O ) has TGI equal to > 34.5 µM

* * *

# Tested on: NCI-H23 lung
# Experiment: NCI tumour cell line growth inhibition, 48 h
Measured Property: TGI

Reference set (10 entries):
# Compound, Measured Result
records = [
    ("O=C(NCCNCCCNC(=O)c1cc(-c2ccccc2)nc2ccccc12)c1cccc(O)c1O", "37.8 µM"),
    ("CCCCc1ccc(Nc2nc(SC)c3[nH]cnc3n2)cc1", "> 100 µM"),
    ("CCOC(=O)C1=NN(c2ccc(C)cc2)C2=CC(C)=NN(C)C(=S)N21", "> 100 µM"),
    ("O=C1NC(=S)N/C1=C\\c1ccc(Br)s1", "> 100 µM"),
    ("OCC(O)C(Cl)CCl (configuration not stated)", "> 100 µM"),
    ("O=C(CCc1ccc(O)c(O)c1)NCCc1cc(O)cc(O)c1", "> 100 µM"),
    ("COc1nc(C#CC2(O)CCCCC2)nc(OC)n1", "27.1 µM"),
    ("CCN(Cc1ccc(F)cc1)c1ccc(CO)c(F)c1", "> 94.6 µM"),
    ("CCOc1ccc(/C(Cl)=C(\\C=O)c2ccc(OC)c(OC)c2)cc1OCC", "> 100 µM"),
    ("COc1ccc2c(c1)[nH]c1c(/C=C/c3ccccc3)nccc12", "35.9 µM"),
]

Per the records, this compound ( CCOC1=C2C(=O)OC(=O)C2C2CCCCC2=C1 (configuration not stated) ) has TGI equal to > 100 µM

Per the records, this compound ( C=C1/C(=C\C=C2/CCC[C@]3(C)[C@@H]([C@H](C)CCCC(C)(C)O)CC[C@@H]23)C[C@@H](OC(=O)CBr)C[C@@H]1O ) has TGI equal to 2.31 µM

Per the records, this compound ( CC1OC(OC2C[C@](O)(C(=O)CF)Cc3c(O)c4c(c(O)c32)C(=O)c2ccccc2C4=O)CC(N)C1O (some centres not stated) ) has TGI equal to 0.169 µM

Per the records, this compound ( Cc1nn(C(=O)Cc2ccccc2)c2c1C(c1ccc(O)cc1O)SC(N)=N2 (configuration not stated) ) has TGI equal to > 100 µM

Per the records, this compound ( Cc1cc(NCCN(C(C)C)C(C)C)nc(/N=C(\N)Nc2ccc(Cl)c(C(F)(F)F)c2)n1 ) has TGI equal to 3.08 µM

Per the records, this compound ( COc1cc(CO)c(CC(=O)NCCCc2ccccc2)cc1OC ) has TGI equal to > 100 µM

Per the records, this compound ( COc1cc(Nc2c(C#N)cnc3cc(OCCCN4CCN(C)CC4)c(OC)cc23)c(Cl)cc1Cl ) has TGI equal to 17.7 µM

Per the records, this compound ( C1=CC=C2NCCCCCCCNC3=CC=CC=CC3=NCCCCCCCN=C2C=C1 ) has TGI equal to > 100 µM

Per the records, this compound ( CCCNC(=O)CCC(C)C1CCC2C3C(C[C@H](OC(C)=O)[C@]12C)[C@@]1(C)CCC2(C[C@H]1C[C@H]3OC(C)=O)OOC1(CC[C@]3(C)C4C[C@H](OC(C)=O)[C@]5(C)C(C(C)CCC(=O)NCCC)CCC5C4[C@H](OC(C)=O)C[C@@H]3C1)OO2 (some centres not stated) ) has TGI equal to > 100 µM

Per the records, this compound ( CC(=O)OCC1OC(c2nc3ccccc3s2)=CC(OC(C)=O)C1OC(C)=O (configuration not stated) ) has TGI equal to > 100 µM

Per the records, this compound ( c1cc2n(n1)CCN2 ) has TGI equal to 6720 µM

Per the records, this compound ( Cc1cc(NCCCCCCNc2cc(C)nc3cc(N(C)C)ccc23)c2ccc(N(C)C)cc2n1 ) has TGI equal to > 100 µM

Per the records, this compound ( CC1(N)CCN(c2cccnc2NC(=O)c2nc(-c3ncccc3C(F)(F)F)cnc2N)CC1 ) has TGI equal to > 100 µM

Data origin, for the record: PubChem BioAssay (NCI)
